assayed-system: hPARL (presenilin-associated rhomboid-like protein, mitochondrial) (Homo sapiens)
Construct: gene PARL; hPARL in HEK293T membrane proteome
Sequence (Q9H300 53-379): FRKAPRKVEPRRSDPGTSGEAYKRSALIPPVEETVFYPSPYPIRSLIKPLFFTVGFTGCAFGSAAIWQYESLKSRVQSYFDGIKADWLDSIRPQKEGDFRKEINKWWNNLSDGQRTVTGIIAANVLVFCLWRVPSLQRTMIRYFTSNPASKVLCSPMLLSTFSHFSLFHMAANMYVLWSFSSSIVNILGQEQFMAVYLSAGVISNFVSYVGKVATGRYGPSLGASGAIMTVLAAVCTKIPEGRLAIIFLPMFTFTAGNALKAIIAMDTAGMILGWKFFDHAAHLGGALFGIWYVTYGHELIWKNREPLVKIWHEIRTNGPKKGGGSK
test-method-notes: competitive ABPP, dose-response
Assay type: biochemical
measured-metric: pIC50
// pIC50 is dimensionless: -log10 of concentration (M)

Request: Identify the reported pIC50 for the following entry. "O=c1oc(Cl)c(Cl)c2ccccc12"
Response: 4.60

---

assayed-system: human RHBDL4 (hRHBDL4) (Homo sapiens)
Sequence (Q8TEB9 1-315): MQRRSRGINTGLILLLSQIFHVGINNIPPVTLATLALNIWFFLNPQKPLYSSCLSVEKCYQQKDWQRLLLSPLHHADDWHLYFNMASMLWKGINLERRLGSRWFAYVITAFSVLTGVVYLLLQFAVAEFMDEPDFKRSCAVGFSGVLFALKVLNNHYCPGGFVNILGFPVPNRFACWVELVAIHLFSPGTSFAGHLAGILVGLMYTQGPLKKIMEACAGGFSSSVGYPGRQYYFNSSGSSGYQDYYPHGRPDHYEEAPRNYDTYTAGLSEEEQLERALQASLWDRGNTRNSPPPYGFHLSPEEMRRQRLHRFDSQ
measured-metric: pIC50
As a rule, pIC50 stands for the negative log10 of the concentration, concentration in M.

Request: // fetch pIC50; item: O=c1oc(Cl)c(Cl)c2ccccc12 [3,4-DCI] ; system: human RHBDL4 (hRHBDL4) (Homo sapiens)
Response: 5.96
